Tested on: Felis catus
ASSAY_NAME: Hypotensive activity in cat following i.v. administration of 1 mg/kg expressed as fall in blood pressure
Type: functional
STUDY_CONDITIONS: route intravenous
Recorded Decrease in blood pressure, one value per entry.
REPORTED_PROPERTY: Decrease in blood pressure (mmHg)

- O=C(O)C(CCOc1cccc2ccccc12)CN1CCCCC1 (stereo unspecified): 30
- c1ccc2cc(OCN3CCCCC3)ccc2c1: 20
- O=C(O)C(CCOc1cccc2ccccc12)CN1CCCC1 (stereo unspecified): 10
- c1ccc(N2CCN(COc3ccc4ccccc4c3)CC2)cc1: 40
- CN1CCN(CC(CCOc2cccc3ccccc23)C(=O)O)CC1 (stereo unspecified): 18
- O=C(O)C(CCOc1cccc2ccccc12)CN1CCNCC1 (stereo unspecified): 12
